ASSAY_SUMMARY: Lability of yttrium complexes on addition of excess metal
Format: physicochemical
CONDITION_CONTEXT: Metal/Ligand Molar Ratio 10; Y; one-half hour after metal addition
Please go through the items and note down their % Complex.
Answers are plain numbers, in %.

These recorded examples may help you get a feel for the data.
Inquiry: Which % Complex value belongs to CC(=O)Nc1ccc(OCC(=O)O)c(C(C(=O)O)N(CCN(CC(=O)O)CC(=O)O)CC(=O)O)c1 (stereo not shown) [Example 2] ?
Reply text: 94

Inquiry: Which % Complex value belongs to O=C(O)CN(CCN(CC(=O)O)CC(=O)O)CC(=O)O [EDTA, ethylenediaminetetraacetic acid] ?
Reply text: 86

Inquiry: Which % Complex value belongs to Nc1cc(CN(CCN(CC(=O)O)CC(=O)O)CC(=O)O)c(O)c(CN(CCN(CC(=O)O)CC(=O)O)CC(=O)O)c1 [Example 12] ?
Reply text: 93

Let us move to another entry and its % Complex.
Inquiry: Which % Complex value belongs to Nc1ccc(CC(CN(CCN(CC(=O)O)CC(=O)O)CC(=O)O)N(CC(=O)O)CC(=O)O)cc1 (stereo not shown) [ABDTPA] ?
Reply text: 95

###

CONDITION_CONTEXT: rat, in vivo, iv, 120 min
Where a name gives a salt, the structure may show the parent alone.
Please go through the items and note down their % Injected Dose in Liver.
Answers are plain numbers, in %.

These recorded examples may help you get a feel for the data.
Inquiry: Which % Injected Dose in Liver value belongs to CC(=O)Nc1cc(CN(CCN(CC(=O)O)CC(=O)O)CC(=O)O)c(O)c(CN(CC(=O)O)CC(=O)O)c1 ?
Reply text: 0.37

Inquiry: Which % Injected Dose in Liver value belongs to CC(=O)Nc1ccc(OCC(=O)O)c(C(C(=O)O)N(CCN(CC(=O)O)CC(=O)O)CC(=O)O)c1 (stereo not drawn) ?
Reply text: 0.22

Inquiry: Which % Injected Dose in Liver value belongs to CC(=O)Nc1ccc(O)c(C(C(=O)O)N(CC#N)CCN(CC(=O)O)CC(=O)O)c1 (stereo not drawn) ?
Reply text: 1.4

Batch of 3 compounds: report % Injected Dose in Liver for each.
1. Nc1ccc(OCC(=O)O)c(C(C(=O)O)N(CCN(CC(=O)O)CC(=O)O)CC(=O)O)c1 (stereo not drawn) [Example 3, SODIUM SALT]
2. Nc1ccc(O)c(C(C(=O)O)N(CCN(CC(=O)O)CC(=O)O)CC(=O)O)c1 (stereo not drawn)
3. CC(=O)Nc1ccc(O)c(C(NCCN(CC(=O)O)CC(=O)O)C(=O)O)c1 (stereo not drawn)

Reply text:
[0.22, 0.38, 0.87]

###

ASSAY_SUMMARY: Percent complex determination, yttrium complexes (Sephadex C-25 cation exchange)
Type: physicochemical
CONDITION_CONTEXT: Y; ligand/metal 10:1
Structures can show the parent of a compound that is named as a salt.
Please go through the items and note down their % Complex.

These recorded examples may help you get a feel for the data.
Inquiry: Which % Complex value belongs to CC(=O)Nc1ccc(O)c(C(C(=O)O)N(CC#N)CCN(CC(=O)O)CC(=O)O)c1 (stereo not drawn) ?
Reply text: > 99%

Inquiry: Which % Complex value belongs to Nc1ccc(OCC(=O)O)c(C(C(=O)O)N(CCN(CC(=O)O)CC(=O)O)CC(=O)O)c1 (stereo not drawn) [Example 3, SODIUM SALT] ?
Reply text: > 99%

Let us move to another entry and its % Complex.
Inquiry: Which % Complex value belongs to CC(=O)Nc1ccc(OCC(=O)O)c(C(C(=O)O)N(CCN(CC(=O)O)CC(=O)O)CC(=O)O)c1 (stereo not drawn) ?
Reply text: > 99%

Cited source: patent US5342604A
